Test system: TK-10 renal
Experiment: NCI-60 one-dose screen, 48 h (100 = growth as untreated, 0 = no growth, -100 = all killed)
Conditions: 10 µM unless noted
Description: Growth inhibition of the TK-10 human tumor cell line is measured as a screen for anti-cancer activity. Cells are grown in 96 well plates and exposed to the test compound for 48 hours. Compounds are tested at a single concentration, which is 10^-5 M for most compounds. The reported endpoint is percent growth (GI% or GIPRCNT), where numbers from 0 - 100% represent growth inhibition, and numbers from -100% - 0 represent cell death. For example, a value of 40 represents 60% growth inhibition. […]
Compounds without any hit were thinned out: in the full panel of roughly 83,000, 20% have a hit.
readoutType: growth (%)
Give your result in % as a bare value.

Problem: Enter reported growth observed with TK-10 renal for O=C1C(Cl)=C(N/N=c2/[nH][nH]/c(=N/NC3=C(Cl)C(=O)c4ccccc4C3=O)c3ccccc23)C(=O)c2ccccc21
Solution: 130

Problem: What is its growth for TK-10 renal? Entry: COc1ccc(C(=O)C(CN(C)C)c2ccccc2)cc1 (configuration not stated)
Solution: 29.5

---

Tested on: NCI-H23 lung
Experiment: NCI-60 one-dose screen, 48 h (100 = growth as untreated, 0 = no growth, -100 = all killed)
Details: 10 µM unless noted
The panel holds about 83,000 compounds, 20% with a hit somewhere; the sample as a whole holds those more often. Active and inactive are the calls of the source. How the source made its calls: active means growth percent below 10; inactive means the rest.
readoutType: growth

O=C1OC(c2ccc(-c3ccccc3)cc2)=C/C1=C/c1c(Cl)cccc1Cl: 94.7% (inactive)

Problem: Checklist item: growth tested on NCI-H23 lung, entry C=C1NC(=O)C(C(C)CC)NC(=O)C2CSCC(NC(=O)CCC(=O)O)C(=O)NC(Cc3ccccc3)C(=O)NC(C)C(=O)NC(CC(C)CC)C(=O)NC(C(=O)NC(Cc3ccccc3)C(=O)N3CCCC3C(=O)N2)C(C)OC(=O)C(CO)NC(=O)C(C(O)COC)N(C)C(=O)C(C(C)C)NC(=O)C(CC(C)CC)NC1=O (centres undefined) , value?
Solution: 38.6% [6 µM] (inactive)

Problem: Short answer please: growth, NCI-H23 lung, entry COc1cc2c(cc1C)NC(=O)/C2=C\c1c[nH]c2ccccc12
Solution: 79.9% (inactive)

Problem: Please provide the recorded growth for COc1ccc(C(=O)c2c(N)nc3n2CCCC3)cc1OC , tested on NCI-H23 lung.
Solution: 109% (inactive)

---

Tested on: OVCAR-4 ovarian
Test: NCI-60 one-dose screen, 48 h (100 = growth as untreated, 0 = no growth, -100 = all killed)
Conditions: 10 µM unless noted
The panel holds about 83,000 compounds, 20% with a hit somewhere; the sample as a whole holds those more often. The source made the active and inactive calls. The calls were made as follows: active = growth percent below 10; inactive = the rest.
Recorded growth by entry

Solved cases below.
COC(=O)CNS(=O)(=O)c1ccc2c(c1)Cc1cc(S(=O)(=O)NCC(=O)OC)ccc1-2: 102% (inactive)
CCOC(=O)c1c(NC(=O)c2ccccc2)sc2c(O)c(CN(CC)CC)ccc12: 42.8% (inactive)
N=C(N)c1ccc(-c2ccc(-c3cc(Cl)cc(Cl)c3)o2)nc1: -57.7% (active)

We now examine a further molecule.
Problem: Entry Brc1cccc(-n2ncc3c(Nc4ccc(-c5nnc(-c6ccccc6)o5)cc4)ncnc32)c1 has what growth?
Solution: 107% (inactive)
